These data points were gathered from PubChem BioAssay (NCI).

- Tested on: UO-31 renal
- method description: NCI-60 one-dose screen, 48 h (100 = growth as untreated, 0 = no growth, -100 = all killed)
- measurement conditions: 10 µM unless noted
This is part of a sample that, as a whole, favours compounds with a hit. Of some 83,000 tested, about 20% had one in any assay. Activity calls are given as the source filed them. Rule for the calls: active = growth percent below 10; inactive = the rest.
metric: growth

molecule: CC1(c2ccccc2)NC(=O)N(NC(=O)CSc2nc(-c3cccs3)nc3ccccc23)C1=O (stereo not given)
target system: UO-31 renal
metric: growth
val: -6.98% (active)
--
molecule: Cc1c(C(=O)N[C@@H](Cc2ccccc2)C(=O)C(=O)NCCc2ccccc2)[nH]c2ccccc2c1=O
target system: UO-31 renal
metric: growth
val: 103% (inactive)
--
molecule: COc1ccc2[nH]c(O)c(/C=c3/cc4c(c(-c5cc(OC)c(OC)c(OC)c5)n3)=Nc3ccccc3-4)c2c1
target system: UO-31 renal
metric: growth
val: 51.5% (inactive)
--
molecule: CC/C=C\C[C@H](O)C/C=C1/C(=O)C=C[C@@H]1C/C=C\CCCC(=O)OC
target system: UO-31 renal
metric: growth
val: -75.1% (active)
--
molecule: Oc1ccc(CN2CCC(N3CCOCC3)CC2)c2cccnc12
target system: UO-31 renal
metric: growth
val: 14.5% (inactive)

* * *

- Tested on: SNB-19 CNS
- method description: NCI-60 one-dose screen, 48 h
- measurement conditions: 10 µM unless noted
The panel holds about 83,000 compounds, 20% with a hit somewhere; the sample as a whole holds those more often. The source made the active and inactive calls. The calls were made as follows: active = growth percent below 10; inactive = the rest.
Outcomes: active, inactive

molecule: COC(=O)c1c2c(c(C)[n+]([O-])c1C)C(=O)C(NCc1ccc(F)cc1)=CC2=O
cat: active
//
molecule: CCCCOc1nc2ccccc2cc1C1CNC(=O)c2ccccc2N1 (stereo not given)
cat: inactive
//
molecule: Nc1ccc2c(c1)c(N)nn2C(=O)Nc1ccc(Cc2ccccc2)cc1
cat: inactive
//
molecule: O=C(COc1ccc(/C=C2\Oc3ccccc3C2=O)cc1)Nc1nc2c(s1)CCCC2
cat: inactive
//
molecule: COC(=O)/C=C1\S/C(=N\NS(=O)(=O)c2ccc(C)cc2)N(c2ccccc2)C1=O
cat: inactive

* * *

- Tested on: HOP-62 NSCLC
- method description: NCI-60 one-dose screen, 48 h (100 = growth as untreated, 0 = no growth, -100 = all killed)
- measurement conditions: 10 µM unless noted
About 83,000 compounds went through this panel and 20% of them were active in at least one assay; those are over-represented in the sample as a whole.
metric: growth (%)

compound: COc1ccc(/C=c2\nc3n(-c4ccccc4)c4nc5c6c(sc5c(=N)n4n-3c2=O)CCCC6)cc1
val: 88.1
//
compound: Cc1ccc(-c2cc(-c3ccccc3C)[nH]c(=O)c2C#N)s1
val: 90.4
//
compound: Cn1c(=O)c2c(nc(Cl)n2CCl)n(C)c1=O
val: 115
//
compound: O=C(NCCNc1cc(-c2cn(-c3ccccc3)nc2-c2cccc(O)c2)ccn1)Nc1ccccc1
val: 63.7
//
compound: Cc1cc(NCc2cc(Nc3ccnc4cc(Cl)ccc34)ccc2F)nc(N2CCN(C)CC2)n1
val: 6.67
//
compound: CCN(CC)CCCNc1ccc(Nc2ccc(OC)cc2)cc1
val: 98.1
//
compound: CC(CN1CCCCC1)C(=O)c1ccccc1 (stereo not given)
val: 103
//
compound: COc1cc(/C=C/C(=O)c2ccc(Nc3nc(Nc4ccc(F)cc4)nc(Nc4ccc(Cl)cc4)n3)cc2)cc(OC)c1OC
val: 82.1
//
compound: C[C@H](NC(=O)[C@@H]1CSSC[C@@H](NC(=O)c2nc3ccccc3cc2O)C(=O)NCC(=O)N1C)c1ccccc1
val: 66.6
//
compound: S=C(Cc1ccc2c(c1)CCCC2)N1CCOCC1
val: 89.8
//
compound: O=[N+]([O-])c1ccc(C2CC(c3ccccc3)=Nc3ccccc3S2)cc1 (stereo not given)
val: 112
//
compound: Cc1cc(NCc2cc(Nc3ccnc4cc(Cl)ccc34)ccc2F)nc(N2CCOCC2)n1
val: -9.53
//
compound: CCc1c2c(nc3ccc(OC(=O)OCc4ccc(B5OC(C)(C)C(C)(C)O5)cc4)cc13)-c1cc3c(c(=O)n1C2)COC(=O)[C@]3(O)CC
val: -10.7
//
compound: COc1cc(C2CC(=O)Nc3c2c(C)nn3-c2nc3ccccc3[nH]2)cc2c1OCC(=O)N2 (stereo not given)
val: 80.8
//
compound: CC(C)CCC[C@@H](C)[C@H]1CC[C@H]2[C@@H](Nc3ccc(O)cc3)CCC[C@]12C
val: 108
//
compound: Cc1cc(NCCCCNc2ccnc3cc(Cl)ccc23)nc(Nc2ccc(C(=O)N3CCCC3)cc2)n1
val: 92.5
//
compound: COC(=O)c1ccc(C2Nc3ccc(S(=O)(=O)Nc4ccc(C)c(C)c4)cc3C3OCCC23)cc1 (stereo not given)
val: 87.3
//
compound: CCCCc1ccc(Nc2ccc(Nc3ccc(CCCC)cc3S(=O)(=O)O)c3c2C(=O)c2ccccc2C3=O)c(S(=O)(=O)O)c1
val: 99.5
//
compound: CC/C=C\CCC/C=C1/C(=O)C=C[C@@H]1C/C=C\CCCC(=O)O
val: 100
//
compound: CCN1CCN(c2nc(C)cc(NCc3cc(Nc4ccnc5cc(Cl)ccc45)ccc3F)n2)CC1
val: 12
//
compound: CCN1C(=O)N(CC)C2Nn3c(s/c(=C\c4ccc(Cl)cc4Cl)c3=O)=NC21 (stereo not given)
val: 72.3
//
compound: Cc1ccc2nc3ccccc3c(NCc3ccccc3)c2c1
val: 43.5
//
compound: CCCCOc1nc2ccccc2cc1C1CNC(=O)c2ccccc2N1 (stereo not given)
val: 23
//
compound: COc1ccc(NC(=O)c2nc(-c3cc(OC)c(OC)c(OC)c3)n(-c3cccc4ccccc34)n2)cc1OC
val: 42.1
//
compound: Clc1cccc(Cl)c1/C=C/c1cc(/C=C/c2c(Cl)cccc2Cl)[nH]n1
val: 49.7
//
compound: CC/C=C\C/C=C\C[C@H](O)C/C=C1/C(=O)C=C[C@@H]1C/C=C\CCCC(=O)O
val: 62.8
//
compound: CN(Cc1cnc2nc(N)nc(N)c2n1)c1ccc(C(=O)N[C@@H](CCc2nn[nH]n2)c2nn[nH]n2)cc1
val: 32.7
//
compound: CCOC(=O)c1csc(NC(=O)COc2cccc(/C=C3\Oc4cc(OC)ccc4C3=O)c2)n1
val: 125
//
compound: COc1ccc(C2=NN(C(=O)c3cc(OC)c(OC)c(OC)c3)C(c3ccc(Cl)cc3)C2)cc1OC (stereo not given)
val: 44.1
//
compound: COC(=O)[C@]12CC[C@@H](C)[C@H](C)[C@@H]1C1=CC[C@@H]3[C@@]4(C)C(C=O)=C[C@@](C)(COS(C)(=O)=O)[C@@H]4C(=O)C[C@@]3(C)[C@]1(C)CC2
val: 41.7
//
compound: CCc1c2c(nc3ccc(OC(=O)NCc4ccc(B5OC(C)(C)C(C)(C)O5)cc4)cc13)-c1cc3c(c(=O)n1C2)COC(=O)[C@]3(O)CC
val: -5.68
//
compound: C[C@H]1[C@H]2[C@H]3CC[C@@H]4[C@@]5(C)C/C(=C/c6cccnc6)C(=O)C(C)(C)[C@@H]5CC[C@@]4(C)[C@]3(C)CC[C@]23CO[C@]1(C)[C@@H](C(=O)/C=C\c1cccnc1)C3
val: -13.6
//
compound: COc1ccc2c(c1)O/C(=C\c1cccc(OCC(=O)Nc3nc(C)c(C)s3)c1)C2=O
val: 101
//
compound: COc1ccc(-c2nc3ccc4[nH]ncc4c3c3c2CCCC3)cc1B(O)O
val: 51.3
//
compound: COc1ccccc1CNCCCN1C(=O)c2ccc3c4c(ccc(c24)C1=O)C(=O)N(CCCNCCCCN)C3=O
val: -31
